target-system: Recombinant Human EphA2 Fc Protein (Homo sapiens, UniProt P29317)
test-details: SPR interaction analysis (Biacore T200), kinetics of peptides against EphA2
measurement-setup: Recombinant Human EphA2 Fc Protein captured by Human Antibody Capture kit; single-cycle kinetics; 25° C.; HBS-P+ buffer with 1% DMSO
pKd: −log10 of the molar value. Bridge positions count the residues as written; N and C are the ends. Square brackets hold non-standard residues; d marks the D form. Peptide text beside a SMILES is read from it. Ala(2-NH2-4-pyridyl) = Nc1cc(C[C@H](N)C(=O)O)ccn1; Trp(1-Me) = Cn1cc(C[C@H](N)C(=O)O)c2ccccc21; NMeF = CN[C@@H](Cc1ccccc1)C(=O)O; hCit = NC(=O)NCCCC[C@H](N)C(=O)O
endpoint-name: pKd

State the recorded pKd for this entry: CC(C)C[C@@H]1NC(=O)[C@H](Cc2ccnc(N)c2)NC(=O)[C@H](Cc2ccccc2)NC(=O)CSC[C@@H](C(=O)NCC(N)=O)NC(=O)[C@H](Cc2cn(C)c3ccccc23)NC(=O)[C@H](Cc2ccccc2)N(C)C(=O)[C@H](Cc2cn(C)c3ccccc23)NC(=O)[C@H](CCCCNC(N)=O)NC1=O [PDC_EphA2-00022601, F-4Py2NH2-L-Hcit-W1Me-MeF-W1Me-C-G-NH2] ({CH2CO}-F[Ala(2-NH2-4-pyridyl)]L[hCit][Trp(1-Me)][NMeF][Trp(1-Me)]CG-NH2; thioether N-8)
6.40 to 7.00

----------
target-system: Recombinant Human EphA2 Fc Protein (Homo sapiens, UniProt P29317)
Construct: purchased Elabscience
test-details: SPR interaction analysis (Biacore T200), kinetics of peptides against EphA2
Format: binding
measurement-setup: Recombinant Human EphA2 Fc Protein captured by Human Antibody Capture kit; single-cycle kinetics; 25° C.; HBS-P+ buffer with 1% DMSO
Bridge positions count the residues as written; N and C are the ends. Square brackets hold non-standard residues; d marks the D form. Peptide text beside a SMILES is read from it. Trp(1-Me) = Cn1cc(C[C@H](N)C(=O)O)c2ccccc21; 3Pal(6-NH2) = Nc1ccc(C[C@H](N)C(=O)O)cn1; NMeF = CN[C@@H](Cc1ccccc1)C(=O)O; 4Pal = N[C@@H](Cc1ccncc1)C(=O)O
endpoint-name: Kd

State the recorded Kd for this entry: CC(C)C[C@@H]1NC(=O)[C@H](CC(N)=O)NC(=O)[C@H](Cc2ccncc2)NC(=O)[C@H](Cc2ccccc2)NC(=O)CSC[C@@H](C(=O)NCC(N)=O)NC(=O)[C@H](Cc2cn(C)c3ccccc23)NC(=O)[C@H](Cc2ccc(N)nc2)NC(=O)[C@H](Cc2cn(C)c3ccccc23)NC(=O)[C@H](Cc2ccccc2)N(C)C(=O)[C@H](CCC(=O)O)NC1=O [PDC_EphA2-00022057-L092] ({CH2CO}-F[4Pal]NLE[NMeF][Trp(1-Me)][3Pal(6-NH2)][Trp(1-Me)]CG-NH2; thioether N-10)
10 to 100 nM

----------
pKd listing for selected compounds.
target-system: Recombinant Human EphA2 Fc Protein (Homo sapiens, UniProt P29317)
test-details: SPR interaction analysis (Biacore T200), kinetics of peptides against EphA2
measurement-setup: Recombinant Human EphA2 Fc Protein captured by Human Antibody Capture kit; single-cycle kinetics; 25° C.; HBS-P+ buffer with 1% DMSO
pKd: −log10 of the molar value. Bridge positions count the residues as written; N and C are the ends. Square brackets hold non-standard residues; d marks the D form. Peptide text beside a SMILES is read from it. Ala(2-NH2-4-pyridyl) = Nc1cc(C[C@H](N)C(=O)O)ccn1; Trp(1-Me) = Cn1cc(C[C@H](N)C(=O)O)c2ccccc21; NMe3Pal = CN[C@@H](Cc1cccnc1)C(=O)O; NMeF = CN[C@@H](Cc1ccccc1)C(=O)O; hCit = NC(=O)NCCCC[C@H](N)C(=O)O; Gly(cBu) = N[C@H](C(=O)O)C1CCC1; Aad = N[C@@H](CCCC(=O)O)C(=O)O; NMeN = CN[C@@H](CC(N)=O)C(=O)O; NMeA = CN[C@@H](C)C(=O)O

Recorded results for 2 compounds are shown here.
CC(=O)NCCCC[C@@H](NC(=O)[C@@H]1CSCC(=O)N[C@@H](Cc2ccccc2)C(=O)N[C@@H](Cc2ccnc(N)c2)C(=O)N[C@@H](CC(C)C)C(=O)N[C@@H](CCCCNC(N)=O)C(=O)N[C@@H](Cc2cn(C)c3ccccc23)C(=O)N(C)[C@@H](Cc2ccccc2)C(=O)N[C@@H](Cc2cn(C)c3ccccc23)C(=O)N1)C(N)=O [PDC_EphA2-00022603] ({CH2CO}-F[Ala(2-NH2-4-pyridyl)]L[hCit][Trp(1-Me)][NMeF][Trp(1-Me)]C[dK](Ac)-NH2; thioether N-8)    6.40 to 7.00
CC(C)[C@@H]1NC(=O)[C@H](Cc2cn(C)c3ccccc23)NC(=O)[C@H](CC(N)=O)N(C)C(=O)[C@H](CCCC(N)=O)NC(=O)[C@H](C2CCC2)NC(=O)[C@H](CC(N)=O)NC(=O)[C@H](Cc2cccnc2)N(C)C(=O)[C@@H](C)NC(=O)CSC[C@@H](C(N)=O)NC(=O)[C@H](CCCC(N)=O)NC(=O)[C@H]([C@@H](C)O)NC(=O)[C@H](Cc2cn(C)c3ccccc23)NC1=O [PDC_EphA2-00010011] ({CH2CO}-[dA][NMe3Pal]N[Gly(cBu)][Aad](NH2)[NMeN][Trp(1-Me)]V[Trp(1-Me)]T[Aad](NH2)C-NH2; thioether N-12)    > 9.00

Alright, here's another compound for you.
Write down the reported pKd of CC(C)C[C@@H]1NC(=O)[C@H](Cc2ccnc(N)c2)NC(=O)[C@H](Cc2ccccc2)NC(=O)CSC[C@@H](C(N)=O)NC(=O)[C@H](Cc2cn(C)c3ccccc23)NC(=O)[C@H](Cc2ccccc2)N(C)C(=O)[C@H](Cc2cn(C)c3ccccc23)NC(=O)[C@H](C)N(C)C1=O [PDC_EphA2-00026479, F-4Py2NH2-L-MeA-W1Me-MeF-W1Me-C-NH2] ({CH2CO}-F[Ala(2-NH2-4-pyridyl)]L[NMeA][Trp(1-Me)][NMeF][Trp(1-Me)]C-NH2; thioether N-8) , test system: Recombinant Human EphA2 Fc Protein (Homo sapiens, UniProt P29317).
6.40 to 7.00

Hello, the source for this data is patent US20260098061A1, in case you need it.
